Reference source for all entries: patent US9758445B2

Protocol details: Surface tension above CMC
Format: physicochemical
Measurement name: Surface Tension (dynes/cm)
Give bare numbers, in dynes/cm.

Example results:
>>> reported_measurement("CCCCCCCCC(C)c1ccc(S(=O)(=O)O)cc1 (stereo not shown) [2-PhC10 LAS, sodium 4-(decan-2-yl)benzenesulfonate]")
43
>>> reported_measurement("CCCCCCCCCCC(C)c1ccc(S(=O)(=O)O)cc1 (stereo not shown) [2-PhC12 LAS, sodium 4-(dodecan-2-yl)benzenesulfonate]")
41
>>> reported_measurement("CCCCCCCCCC(C)c1ccc(S(=O)(=O)O)cc1 (stereo not shown) [2-PhC11 LAS, sodium 4-(undecan-2-yl)benzenesulfonate]")
43

Incoming: Could you please provide reported Surface Tension for CCCCCCCCCCCCCCC(C)c1ccc(S(=O)(=O)O)cc1 (stereo not shown) ? Thanks!
Outgoing: 44

###

Exercise: state measured Krafft Point for each of the compounds provided.
Protocol details: Krafft Point from the abrupt increase in electrical conductivity as a function of temperature
Type: physicochemical
Answers are plain numbers, in °C.

Example results:
>>> reported_measurement("CCCCCCCCCCC(C)c1ccc(S(=O)(=O)O)cc1 (stereo not shown) [2-PhC12 LAS, sodium 4-(dodecan-2-yl)benzenesulfonate]")
22.5
>>> reported_measurement("CCCCCCCCC(C)c1ccc(S(=O)(=O)O)cc1 (stereo not shown) [2-PhC10 LAS, sodium 4-(decan-2-yl)benzenesulfonate]")
22.5
>>> reported_measurement("CCCCCCCCCC(C)c1ccc(S(=O)(=O)O)cc1 (stereo not shown) [2-PhC11 LAS, sodium 4-(undecan-2-yl)benzenesulfonate]")
23.0

Incoming: Could you please provide reported Krafft Point for CCCCCCCCCCCCCCC(C)c1ccc(S(=O)(=O)O)cc1 (stereo not shown) ? Thanks!
Outgoing: 45.0

###

Protocol details: Surfactant Foaming Test in tap water
Type: physicochemical
Parameters: key: A: No Foam Generated; B: Small Volume of Foam Generated; C: Large Volume of Foam Generated
Run parameters: surfactant 0.023 wt %, tap water 7.0 mL, 23° C., shaken vigorously, foaming recorded after standing 3 minutes
Measurement name: Surfactant Foaming Test Results

>>> reported_measurement("CCCCCCCCCCC(C)c1ccc(COCCOCCOCCOCCOC)cc1 (stereo not drawn)")
"C"
>>> reported_measurement("CCCCCCCCCCCCC(C)c1ccc(COCCOCCOCCOC)cc1 (stereo not drawn)")
"B"
>>> reported_measurement("CCCCCCCCC(C)c1ccc(COCCO)cc1 (stereo not drawn)")
"A"
>>> reported_measurement("CCCCCCCCCC(C)c1ccccc1 (stereo not drawn)")
"A"
>>> reported_measurement("CCCCCCCCC(C)c1ccccc1 (stereo not drawn)")
"A"

Look up Surfactant Foaming Test Results for the entries below, preserving their order.
1. CCCCCCCCCCCCC(C)c1ccc(COCCOCCOCCOCCO)cc1 (stereo not drawn)
2. CCCCCCCCCCCC(C)c1ccc(CO)cc1 (stereo not drawn)
3. CCCCCCCCC(C)c1ccc(COCCOCCOCCOCCO)cc1 (stereo not drawn)
4. CCCCCCCCCC(C)c1ccc(CO)cc1 (stereo not drawn)
5. CCCCCCCCCCCCCCC(C)c1ccc(CO)cc1 (stereo not drawn)
6. CCCCCCCCCCCCCCC(C)c1ccc(COCCOC)cc1 (stereo not drawn)
7. CCCCCCCCCCCCCCC(C)c1ccc(COCCOCCOCCOCCO)cc1 (stereo not drawn)

Outgoing:
1: C; 2: A; 3: C; 4: A; 5: A; 6: C; 7: C
